- System: NCI-H1792
- TEST DETAILS: relative viability (nuclei count vs DMSO), 5 days (fraction); higher = more cells survive
- CONDITIONS: first compound 0.005 µM
MEASUREMENT KIND: relative viability
Output: the number by itself.

Value lookup for relative viability; key = CC1(C)CCC(c2ccc(Cl)cc2)=C(CN2CCN(c3ccc(C(=O)NS(=O)(=O)c4ccc(N[C@H](CCN5CCOCC5)CSc5ccccc5)c(S(=O)(=O)C(F)(F)F)c4)cc3)CC2)C1 [Navitoclax] + O=C(c1cc(Cc2n[nH]c(=O)c3ccccc23)ccc1F)N1CCN(C(=O)C2CC2)CC1 [Olaparib] (partner 8 µM)
0.408

Value lookup for relative viability; key = CC1(C)CCC(c2ccc(Cl)cc2)=C(CN2CCN(c3ccc(C(=O)NS(=O)(=O)c4ccc(N[C@H](CCN5CCOCC5)CSc5ccccc5)c(S(=O)(=O)C(F)(F)F)c4)cc3)CC2)C1 [Navitoclax] + Cc1nc(NC(=O)N2CCC[C@H]2C(N)=O)sc1-c1ccnc(C(C)(C)C(F)(F)F)c1 [Alpelisib] (partner 2 µM)
0.735

Value lookup for relative viability; key = CC1(C)CCC(c2ccc(Cl)cc2)=C(CN2CCN(c3ccc(C(=O)NS(=O)(=O)c4ccc(N[C@H](CCN5CCOCC5)CSc5ccccc5)c(S(=O)(=O)C(F)(F)F)c4)cc3)CC2)C1 [Navitoclax] + CS(=O)(=O)N1CCN(Cc2cc3nc(-c4cccc5[nH]ncc45)nc(N4CCOCC4)c3s2)CC1 [Pictilisib] (partner 1 µM)
0.307

Continuing:
Value lookup for relative viability; key = CC1(C)CCC(c2ccc(Cl)cc2)=C(CN2CCN(c3ccc(C(=O)NS(=O)(=O)c4ccc(N[C@H](CCN5CCOCC5)CSc5ccccc5)c(S(=O)(=O)C(F)(F)F)c4)cc3)CC2)C1 [Navitoclax] + N=C(N)NC(=N)NCCc1ccccc1 [Phenformin] (partner 250 µM)
0.258

* * *

Quick reference for relative viability among some molecules
- Tested on: NCI-H1355
- TEST DETAILS: relative viability (nuclei count vs DMSO), 5 days (fraction); higher = more cells survive
- CONDITIONS: first compound 0.5 µM
Output: the number by itself.

Value lookup for relative viability; key = CC1(C)CCC(c2ccc(Cl)cc2)=C(CN2CCN(c3ccc(C(=O)NS(=O)(=O)c4ccc(N[C@H](CCN5CCOCC5)CSc5ccccc5)c(S(=O)(=O)C(F)(F)F)c4)cc3)CC2)C1 [Navitoclax] + COc1cc2c(Oc3ccc(NC(=O)C4(C(=O)Nc5ccc(F)cc5)CC4)cc3F)ccnc2cc1OCCCN1CCOCC1 [Foretinib] (partner 0.25 µM)
0.965

Turning to the following molecule.
Value lookup for relative viability; key = CC1(C)CCC(c2ccc(Cl)cc2)=C(CN2CCN(c3ccc(C(=O)NS(=O)(=O)c4ccc(N[C@H](CCN5CCOCC5)CSc5ccccc5)c(S(=O)(=O)C(F)(F)F)c4)cc3)CC2)C1 [Navitoclax] + CS(=O)(=O)N1CCN(Cc2cc3nc(-c4cccc5[nH]ncc45)nc(N4CCOCC4)c3s2)CC1 [Pictilisib] (partner 1 µM)
0.427

* * *

- Tested on: LOU-NH91
- TEST DETAILS: relative viability (nuclei count vs DMSO), 5 days (fraction); higher = more cells survive
- CONDITIONS: first compound 0.005 µM
I'd appreciate it if you marked entries Condition met when relative viability is lower than 0.7 and Condition not met when it is not.

Examples with answers:
Consider CC1(C)CCC(c2ccc(Cl)cc2)=C(CN2CCN(c3ccc(C(=O)NS(=O)(=O)c4ccc(N[C@H](CCN5CCOCC5)CSc5ccccc5)c(S(=O)(=O)C(F)(F)F)c4)cc3)CC2)C1 [Navitoclax] + O=C(CCCCCCC(=O)Nc1ccccc1)NO [Vorinostat] (partner 1 µM) . Does its relative viability lie strictly below 0.7?
Condition not met

Consider CC1(C)CCC(c2ccc(Cl)cc2)=C(CN2CCN(c3ccc(C(=O)NS(=O)(=O)c4ccc(N[C@H](CCN5CCOCC5)CSc5ccccc5)c(S(=O)(=O)C(F)(F)F)c4)cc3)CC2)C1 [Navitoclax] + CC(C)C[C@H](NC(=O)[C@H](Cc1ccccc1)NC(=O)c1cnccn1)B(O)O [Bortezomib] (partner 0.002 µM) . Does its relative viability lie strictly below 0.7?
Condition met

Consider CC1(C)CCC(c2ccc(Cl)cc2)=C(CN2CCN(c3ccc(C(=O)NS(=O)(=O)c4ccc(N[C@H](CCN5CCOCC5)CSc5ccccc5)c(S(=O)(=O)C(F)(F)F)c4)cc3)CC2)C1 [Navitoclax] + Nc1ncn([C@H]2C[C@H](O)[C@@H](CO)O2)c(=O)n1 [Decitabine] (partner 2 µM) . Does its relative viability lie strictly below 0.7?
Condition not met

Continuing:
Consider CC1(C)CCC(c2ccc(Cl)cc2)=C(CN2CCN(c3ccc(C(=O)NS(=O)(=O)c4ccc(N[C@H](CCN5CCOCC5)CSc5ccccc5)c(S(=O)(=O)C(F)(F)F)c4)cc3)CC2)C1 [Navitoclax] + COc1cccc2cc(-c3nc([C@H]4CC[C@H](C(=O)O)CC4)n4ncnc(N)c34)[nH]c12 [OSI-027] (partner 0.5 µM) . Does its relative viability lie strictly below 0.7?
Condition not met

Consider CC1(C)CCC(c2ccc(Cl)cc2)=C(CN2CCN(c3ccc(C(=O)NS(=O)(=O)c4ccc(N[C@H](CCN5CCOCC5)CSc5ccccc5)c(S(=O)(=O)C(F)(F)F)c4)cc3)CC2)C1 [Navitoclax] + Cc1cc(Nc2cc(N3CCN(C)CC3)nc(Sc3ccc(NC(=O)C4CC4)cc3)n2)n[nH]1 [Tozasertib] (partner 0.1 µM) . Does its relative viability lie strictly below 0.7?
Condition met

Consider CC1(C)CCC(c2ccc(Cl)cc2)=C(CN2CCN(c3ccc(C(=O)NS(=O)(=O)c4ccc(N[C@H](CCN5CCOCC5)CSc5ccccc5)c(S(=O)(=O)C(F)(F)F)c4)cc3)CC2)C1 [Navitoclax] + CCNC(=O)c1noc(-c2cc(C(C)C)c(O)cc2O)c1-c1ccc(CN2CCOCC2)cc1 [Luminespib] (partner 0.01 µM) . Does its relative viability lie strictly below 0.7?
Condition met

* * *

- Tested on: NCI-H2347
- TEST DETAILS: relative viability (nuclei count vs DMSO), 5 days (fraction); higher = more cells survive
- CONDITIONS: first compound 0.04 µM
I'd appreciate it if you marked entries Yes when relative viability is lower than 0.5 and No when it is not.

Consider O=C(O)c1ccc(-c2c[nH]c3ncc(-c4ccccc4)cc23)cc1C1CCCC1 + C[C@@H](Oc1cc(-c2cnn(C3CCNCC3)c2)cnc1N)c1c(Cl)ccc(F)c1Cl [Crizotinib] (partner 1 µM) . Does its relative viability lie strictly below 0.5?
No

Consider O=C(O)c1ccc(-c2c[nH]c3ncc(-c4ccccc4)cc23)cc1C1CCCC1 + CC(=O)c1c(C)c2cnc(Nc3ccc(N4CCNCC4)cn3)nc2n(C2CCCC2)c1=O [Palbociclib] (partner 0.5 µM) . Does its relative viability lie strictly below 0.5?
Yes

Consider O=C(O)c1ccc(-c2c[nH]c3ncc(-c4ccccc4)cc23)cc1C1CCCC1 + CC(=O)Nc1cccc(-n2c(=O)n(C3CC3)c(=O)c3c(Nc4ccc(I)cc4F)n(C)c(=O)c(C)c32)c1 [Trametinib] (partner 0.02 µM) . Does its relative viability lie strictly below 0.5?
Yes

Consider O=C(O)c1ccc(-c2c[nH]c3ncc(-c4ccccc4)cc23)cc1C1CCCC1 + COc1cccc2cc(-c3nc([C@H]4CC[C@H](C(=O)O)CC4)n4ncnc(N)c34)[nH]c12 [OSI-027] (partner 0.5 µM) . Does its relative viability lie strictly below 0.5?
Yes

Consider O=C(O)c1ccc(-c2c[nH]c3ncc(-c4ccccc4)cc23)cc1C1CCCC1 + O=C(c1cc(Cc2n[nH]c(=O)c3ccccc23)ccc1F)N1CCN(C(=O)C2CC2)CC1 [Olaparib] (partner 8 µM) . Does its relative viability lie strictly below 0.5?
No

Consider O=C(O)c1ccc(-c2c[nH]c3ncc(-c4ccccc4)cc23)cc1C1CCCC1 + CS(=O)(=O)CCNCc1ccc(-c2ccc3ncnc(Nc4ccc(OCc5cccc(F)c5)c(Cl)c4)c3c2)o1 [Lapatinib] (partner 2 µM) . Does its relative viability lie strictly below 0.5?
No

Kindly consider the entry below.
Consider O=C(O)c1ccc(-c2c[nH]c3ncc(-c4ccccc4)cc23)cc1C1CCCC1 + Nc1ncn([C@H]2C[C@H](O)[C@@H](CO)O2)c(=O)n1 [Decitabine] (partner 2 µM) . Does its relative viability lie strictly below 0.5?
No

* * *

- System: NCI-H1915
- TEST DETAILS: relative viability (nuclei count vs DMSO), 5 days (fraction); higher = more cells survive
- CONDITIONS: first compound 0.8 µM
MEASUREMENT KIND: relative viability

Some compounds with recorded relative viability:
Value lookup for relative viability; key = Oc1nc(-c2ccc(C(F)(F)F)cc2)nc2c1CSCC2 [XAV939] + O=C(c1cc(Cc2n[nH]c(=O)c3ccccc23)ccc1F)N1CCN(C(=O)C2CC2)CC1 [Olaparib] (partner 8 µM)
0.239

Value lookup for relative viability; key = C=C1C(=O)O[C@@H](CCCCCCCC)[C@@H]1C(=O)O [C-75] + O=C(CCCCCCC(=O)Nc1ccccc1)NO [Vorinostat] (partner 1 µM)
0.526

Turning to the following compound.
Value lookup for relative viability; key = Oc1nc(-c2ccc(C(F)(F)F)cc2)nc2c1CSCC2 [XAV939] + CCNC(=O)c1noc(-c2cc(C(C)C)c(O)cc2O)c1-c1ccc(CN2CCOCC2)cc1 [Luminespib] (partner 0.01 µM)
0.849
